This collection of values is drawn from paper PMC10397247.

Tgt: T1, 4H3595-AA
T1 chain: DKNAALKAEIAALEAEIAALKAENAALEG
Experiment: two-hybrid library CCmax;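 also: natural log of median RNA to DNA barcode read ratio; higher means stronger binding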
Cond: mean of both orientations
I'd appreciate it if you could supply interaction score values for the items below.
The answer should be a number; do not append a unit.

Query: Given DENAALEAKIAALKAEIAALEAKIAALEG [4H1349-AA] , state its recorded interaction score.
Result: 1.05

Query: Try this binder next: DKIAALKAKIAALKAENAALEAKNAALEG [4H2903-AA]
Result: -0.655

Query: Try this binder next: DKNAALEAEIAALEAKNAALKAEIAALEG [4H3129-AA]
Result: -1.39

Query: Try this binder next: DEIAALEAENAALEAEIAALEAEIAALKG [4H130-AA]
Result: 0.698

Query: Try this binder next: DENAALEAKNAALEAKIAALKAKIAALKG [4H1454-AA]
Result: 0.813

Query: Try this binder next: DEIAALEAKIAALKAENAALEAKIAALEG [4H341-AA]
Result: -1.29

Query: Try this binder next: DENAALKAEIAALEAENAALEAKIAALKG [4H1558-AA]
Result: -1.53
